Sequence of the target: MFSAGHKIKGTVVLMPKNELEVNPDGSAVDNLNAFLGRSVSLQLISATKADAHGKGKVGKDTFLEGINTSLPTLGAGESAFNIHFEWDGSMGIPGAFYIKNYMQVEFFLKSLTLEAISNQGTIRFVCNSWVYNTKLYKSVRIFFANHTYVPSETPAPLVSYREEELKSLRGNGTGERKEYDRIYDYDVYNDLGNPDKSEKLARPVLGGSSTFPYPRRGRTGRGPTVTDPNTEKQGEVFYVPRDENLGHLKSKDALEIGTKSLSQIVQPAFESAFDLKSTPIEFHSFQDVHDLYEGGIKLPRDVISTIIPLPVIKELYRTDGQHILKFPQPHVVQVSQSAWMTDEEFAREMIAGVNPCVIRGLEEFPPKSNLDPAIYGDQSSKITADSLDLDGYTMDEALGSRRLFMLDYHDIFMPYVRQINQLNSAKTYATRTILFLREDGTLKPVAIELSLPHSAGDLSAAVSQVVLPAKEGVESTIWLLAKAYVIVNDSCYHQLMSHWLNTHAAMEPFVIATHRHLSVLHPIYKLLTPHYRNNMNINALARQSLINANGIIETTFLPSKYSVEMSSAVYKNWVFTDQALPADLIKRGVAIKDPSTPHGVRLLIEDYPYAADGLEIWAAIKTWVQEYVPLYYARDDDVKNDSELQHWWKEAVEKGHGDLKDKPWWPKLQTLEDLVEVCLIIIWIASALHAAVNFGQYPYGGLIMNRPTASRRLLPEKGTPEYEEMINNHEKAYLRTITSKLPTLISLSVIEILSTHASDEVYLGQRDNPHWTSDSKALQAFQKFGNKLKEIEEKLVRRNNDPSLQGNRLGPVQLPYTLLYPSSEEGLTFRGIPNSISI
ATTRIBUTE_MEASURED: pIC50
Note: pIC50 values are expressed as the negative base-10 logarithm of concentration in M.

Query: Identify measured pIC50 associated with O=c1cc(-c2ccc(O)c(O)c2)oc2cc(O)cc(O)c12 [Compound 1, luteolin]
Result: 4.59
